Values were extracted from patent US20260116991A1.

Entries annotated with measured OD450 at 0.0001 nM
EXPERIMENTAL_SYSTEM: T1, monkey GPC3-His protein (monkey)
T1 construct: Bought recombinant protein; also called monkey GPC3 protein
METHOD_NOTES: ELISA, monkey GPC3-His coated;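 also: Plate-coated antigen at 1 µg/mL, antibody binding 2 h at 37 °C, detected with HRP-labeled secondary antibody and TMB, absorbance at 450 nm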
Give the value, in units of OD450, as a plain number.

Recorded OD450 at 0.0001 nM, per entry:
query: I am curious: what OD450 at 0.0001 nM value has been reported for F4.18.4 (antibody, human IgG1, kappa, V domains shown, Human-murine chimeric antibody) VH: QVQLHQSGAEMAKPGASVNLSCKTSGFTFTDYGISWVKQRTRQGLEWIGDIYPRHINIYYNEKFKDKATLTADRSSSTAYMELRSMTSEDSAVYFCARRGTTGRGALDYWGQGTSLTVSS VL: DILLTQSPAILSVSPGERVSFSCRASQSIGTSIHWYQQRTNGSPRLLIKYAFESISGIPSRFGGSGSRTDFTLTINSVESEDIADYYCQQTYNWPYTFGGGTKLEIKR ?
result: 0.14

query: Same lookup for F1.83.6 (antibody, human IgG1, kappa, V domains shown, Human-murine chimeric antibody) VH: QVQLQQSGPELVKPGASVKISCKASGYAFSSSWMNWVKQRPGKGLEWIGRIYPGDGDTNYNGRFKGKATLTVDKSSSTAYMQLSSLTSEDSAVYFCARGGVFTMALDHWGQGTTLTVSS VL: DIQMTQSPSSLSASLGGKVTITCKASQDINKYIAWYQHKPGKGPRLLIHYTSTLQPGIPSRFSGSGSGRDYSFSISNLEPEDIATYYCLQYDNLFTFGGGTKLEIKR , please.
result: 0.05

query: Same lookup for F4.26.1 (antibody, human IgG1, kappa, V domains shown, Human-murine chimeric antibody) VH: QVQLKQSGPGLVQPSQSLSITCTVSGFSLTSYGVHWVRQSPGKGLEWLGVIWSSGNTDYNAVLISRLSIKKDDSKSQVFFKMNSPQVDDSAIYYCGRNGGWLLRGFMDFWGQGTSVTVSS VL: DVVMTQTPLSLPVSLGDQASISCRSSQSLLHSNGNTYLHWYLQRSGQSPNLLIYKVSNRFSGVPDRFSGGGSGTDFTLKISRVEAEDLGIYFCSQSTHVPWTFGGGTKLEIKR , please.
result: 0.27

query: Same lookup for F1.62.9 (antibody, human IgG1, kappa, V domains shown, Human-murine chimeric antibody) VH: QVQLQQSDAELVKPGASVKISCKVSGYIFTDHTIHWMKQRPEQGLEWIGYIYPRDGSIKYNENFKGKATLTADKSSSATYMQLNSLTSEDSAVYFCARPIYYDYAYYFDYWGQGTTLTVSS VL: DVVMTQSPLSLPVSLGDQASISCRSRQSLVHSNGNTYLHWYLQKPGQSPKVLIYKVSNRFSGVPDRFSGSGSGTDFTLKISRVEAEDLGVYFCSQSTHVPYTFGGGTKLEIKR , please.
result: 0.21

Attention now shifts to the item below.
query: I am curious: what OD450 at 0.0001 nM value has been reported for F1.9.19 (antibody, human IgG1, kappa, V domains shown, Human-murine chimeric antibody) VH: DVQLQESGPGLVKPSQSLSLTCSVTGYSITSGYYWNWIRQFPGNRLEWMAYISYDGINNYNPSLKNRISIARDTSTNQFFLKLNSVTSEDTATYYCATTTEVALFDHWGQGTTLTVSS VL: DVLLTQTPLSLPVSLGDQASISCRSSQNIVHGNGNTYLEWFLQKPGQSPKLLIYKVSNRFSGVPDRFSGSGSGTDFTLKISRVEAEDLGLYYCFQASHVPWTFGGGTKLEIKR ?
result: 0.04
